# test target: Cytochrome P450 2C9 (Homo sapiens) (UniProt P11712)
# Sequence (P11712 whole entry, looked up): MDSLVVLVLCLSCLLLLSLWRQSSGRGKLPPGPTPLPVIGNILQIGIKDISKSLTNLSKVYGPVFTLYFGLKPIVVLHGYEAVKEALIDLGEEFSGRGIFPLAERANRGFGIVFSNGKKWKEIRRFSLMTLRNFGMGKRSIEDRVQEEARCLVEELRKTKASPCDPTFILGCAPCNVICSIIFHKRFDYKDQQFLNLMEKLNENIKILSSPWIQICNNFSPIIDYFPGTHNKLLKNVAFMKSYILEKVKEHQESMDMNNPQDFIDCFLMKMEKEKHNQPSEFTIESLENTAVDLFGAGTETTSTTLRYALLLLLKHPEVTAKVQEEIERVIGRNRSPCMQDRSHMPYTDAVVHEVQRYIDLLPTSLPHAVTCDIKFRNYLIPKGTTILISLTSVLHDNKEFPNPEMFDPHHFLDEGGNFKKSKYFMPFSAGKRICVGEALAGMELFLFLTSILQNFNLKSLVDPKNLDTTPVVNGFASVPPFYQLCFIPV
# experimental protocol: blockers of cytochrome P450 2C9 activity – biochemical, luminescence, ADME assay, primary screen (AID 777)
# condition set: CYP2C9 Supersomes, luciferin-H conversion, at 5 µM, hits give high values
Out of some 96,000 compounds screened, about 19,000 (20%) were called active. Only a sample is shown.
result type: inhibition (%)
The reply should contain only the number, in %.

Item "O=C(Nc1nnc(CCOCCOCCc2nnc(NC(=O)c3ccco3)s2)s1)c1ccco1" : provide inhibition
19.4

Item "O=C(NCc1ccco1)c1sc2cccc(F)c2c1Cl" : provide inhibition
-26.6

Item CCC(C)n1[nH]c(=O)cc1N (configuration not stated) : provide inhibition
-5.6

Item "O=C(CCl)NNc1cccc(Cl)n1" : provide inhibition
10.1

Item "Cc1cc(C(=O)CC#N)c(C)n1CC(F)(F)F" : provide inhibition
19.4

Item "O=C(Nc1ccncc1)c1cc2ccccc2o1" : provide inhibition
86

Item CSCCC1NC2(C(=O)Nc3ccc(Cl)cc32)[C@@H]2C(=O)N(C3CCCC3)C(=O)[C@H]12 (some centres not stated) : provide inhibition
76.1

Item "Cc1nc2c(-c3ccc(F)cc3)c(C)nn2c(C)c1CCC(=O)NCc1ccco1" : provide inhibition
24.9

Item "Cc1cc(C(=O)OCC(=O)NCc2ccco2)c(C)n1-c1ccccc1" : provide inhibition
42.1

Item COc1ccc(NC(=O)CC2COc3ccccc3O2)c(OC)c1 (configuration not stated) : provide inhibition
5.9

Item CC(OC(=O)CN1C(=O)C2CCCCC2C1=O)C(=O)Nc1ncc(Cl)cc1Cl (configuration not stated) : provide inhibition
-1.7

Item "O=C(Nc1cccc(-c2nc3ncccc3o2)c1)c1ccco1" : provide inhibition
-2.1
